target: MAT2A (Homo sapiens (Human), UniProt P31153); test: MAT2A biochemical test (inorganic phosphate colorimetric, PiColorLock); conditions: class symbols; read-out: MAT2A inhibitory Activity IC50
Sequence (P31153 whole entry): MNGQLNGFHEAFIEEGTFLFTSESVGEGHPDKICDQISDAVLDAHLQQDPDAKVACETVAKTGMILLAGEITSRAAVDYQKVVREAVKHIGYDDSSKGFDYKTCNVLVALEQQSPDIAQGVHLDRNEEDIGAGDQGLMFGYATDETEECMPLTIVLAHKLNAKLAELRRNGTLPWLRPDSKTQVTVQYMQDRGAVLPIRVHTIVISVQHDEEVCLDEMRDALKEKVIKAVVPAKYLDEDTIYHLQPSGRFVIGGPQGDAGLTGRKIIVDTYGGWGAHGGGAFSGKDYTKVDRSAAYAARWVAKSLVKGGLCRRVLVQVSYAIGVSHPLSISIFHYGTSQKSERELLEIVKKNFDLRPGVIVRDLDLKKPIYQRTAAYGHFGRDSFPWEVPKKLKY
pIC50: −log10 of the molar value.
Endpoint: pIC50

# annotated cases, reported pIC50 shown
CCn1cnc2c(=O)n(-c3ccccc3Cl)c3nc(C(F)(F)F)ccc3c21 :: 6.30 to 7.00
Cn1cnc2c(=O)n(-c3ccccc3Cl)c3nc(C(F)(F)F)ccc3c21 :: > 7.00
Cn1cnc2c(=O)n(-c3cccc(F)c3F)c3nc(C(F)(F)F)ccc3c21 :: > 7.00
CCc1ncccc1-n1c(=O)c2ncn(C)c2c2ccc(C(F)(F)F)nc21 (single isomer, unassigned) [Compound 67-P2] :: > 7.00
Cn1cnc2c(=O)n(-c3cccnc3C3CC3)c3cc(C(F)(F)F)ccc3c21 (atropisomer, axis not shown) [Compound 48] :: > 7.00
CCOc1ccc2c3cn(C)nc3c(=O)n(-c3ccc(OC(F)F)cc3)c2n1 :: 6.30 to 7.00
C#Cc1cccc(-n2c(=O)c3ncn(C)c3c3ccc(C(F)(F)F)nc32)c1Cl (single isomer, unassigned) [Compound 80-P2] :: > 7.00
Cn1cnc2c(=O)n(-c3ccccc3)c3nc(C(F)(F)F)ccc3c21 :: > 7.00
COc1ncccc1-n1c(=O)c2ncn(C)c2c2ccc(C(F)(F)F)nc21 :: > 7.00
Cc1ncccc1-n1c(=O)c2ncoc2c2ccc(C(F)(F)F)nc21 :: > 7.00

Q) State the recorded pIC50 for this entry: O=c1c2ncoc2c2ccc(C(F)(F)F)cc2n1-c1cccnc1C1CC1 (single isomer, unassigned) [Compound 85-P2]
A) > 7.00

Q) Consider next the compound "Cc1ncccc1-n1c(=O)c2ncn(Cc3cnn(C)c3)c2c2ccc(C(F)(F)F)nc21" in the same way.
A) 6.30 to 7.00

Q) Consider next the compound O=c1c2ncn(C(F)F)c2c2ccc(Cl)cc2n1-c1cccnc1C1CC1 (single isomer, unassigned) [Compound 87-P2] in the same way.
A) > 7.00

Q) Consider next the compound O=c1c2ncoc2c2ccc(C(F)(F)F)nc2n1-c1cccnc1C1CC1 (atropisomer, axis not shown) [Compound 81] in the same way.
A) > 7.00

Q) Consider next the compound "CNCCn1cnc2c(=O)n(-c3ccccc3Cl)c3nc(C(F)(F)F)ccc3c21" in the same way.
A) 6.00 to 6.30

Q) Consider next the compound Cn1cnc2c(=O)n(-c3cccnc3C3CC3)c3nc(C(F)(F)F)ccc3c21 (single isomer, unassigned) [Compound 42-P2] in the same way.
A) > 7.00

Q) Consider next the compound "Cn1cnc2c(=O)n(-c3cccc(C#N)c3)c3nc(C(F)(F)F)ccc3c21" in the same way.
A) > 7.00

Q) Consider next the compound "Cc1ncncc1-n1c(=O)c2ncn(C)c2c2ccc(C(F)(F)F)nc21" in the same way.
A) 6.30 to 7.00

Q) Consider next the compound "NCCn1cnc2c(=O)n(-c3ccccc3Cl)c3nc(C(F)(F)F)ccc3c21" in the same way.
A) 6.30 to 7.00
